Readings of pIC50 for the listed compounds
biological target: NS5B from the BK strain (genotype 1b) (Hepatitis C virus genotype 1b, UniProt P26663); construct: NS5B from the BK strain (genotype 1b) is expressed in E. coli as a protein in which the 21 C-terminal amino acids are replaced; made in house; host or cells: E. coli; assay: Hepatitis C polymerase inhibition, NS5B BK strain, 33P-GTP filter assay; format: biochemical; conditions: Table 1B; NS5B BK strain; read-out: BK IC50
Sequence (P26663 2420-2989): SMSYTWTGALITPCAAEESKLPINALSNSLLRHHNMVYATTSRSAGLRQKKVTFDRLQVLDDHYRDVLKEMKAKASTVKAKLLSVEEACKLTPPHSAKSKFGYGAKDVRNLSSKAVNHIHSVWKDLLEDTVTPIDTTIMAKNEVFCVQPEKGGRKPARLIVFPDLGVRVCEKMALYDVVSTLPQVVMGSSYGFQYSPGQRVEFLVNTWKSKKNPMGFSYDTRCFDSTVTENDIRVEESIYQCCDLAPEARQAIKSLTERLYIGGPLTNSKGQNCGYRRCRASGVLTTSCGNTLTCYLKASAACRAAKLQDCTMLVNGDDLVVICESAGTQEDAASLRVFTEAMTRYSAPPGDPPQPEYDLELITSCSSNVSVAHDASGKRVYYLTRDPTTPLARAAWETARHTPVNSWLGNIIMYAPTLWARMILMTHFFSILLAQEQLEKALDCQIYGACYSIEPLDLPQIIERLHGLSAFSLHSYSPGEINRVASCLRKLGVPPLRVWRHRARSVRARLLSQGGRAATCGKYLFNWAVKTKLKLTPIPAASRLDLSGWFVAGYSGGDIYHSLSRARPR
pIC50: −log10 of the molar value.

compound | qualifyingSign | pIC50
O=C(O)CC1(CC2CCCC2)OCCc2c1[nH]c1c(Cl)ccc(Cl)c21 (stereo not drawn) [Example 258] | = | 5.03
O=C(O)CC1(C2CC2)OCCc2c1[nH]c1c(Cl)ccc(Cl)c21 (stereo not drawn) [Example 252] | = | 5.14
CCC[C@]1(CC(=O)O)OCCc2c1[nH]c1c(Cl)ccc(C#N)c21 [Example 322] | = | 7.40
CCCCOc1cc(C#N)c2c3c([nH]c2c1C)C(CCC)(CC(=O)O)OCC3 (stereo not drawn) [Example 365] | = | 7.00
CCCC1(CC(=O)O)OCCc2c1[nH]c1c(C)c(OCc3ccccc3)cc(C#N)c21 (stereo not drawn) [Example 368] | = | 6.96
CC[C@H](C)[C@@]1(C(=O)O)OCCc2c1[nH]c1c(C)ccc(C#N)c21 (relative stereo) [Example 335] | < | 4.52
CCCC1(CC(=O)O)OCCc2c1[nH]c1c(C)ccc([N+](=O)[O-])c21 (stereo not drawn) [Example 298] | = | 6.52
COCC1(CC(=O)O)OCCc2c1[nH]c1c(C)ccc(C#N)c21 (stereo not drawn) [Example 281] | < | 4.52
CCCC1(CC(=O)O)OCCc2c1[nH]c1c(C)c(C(=O)NC(C)C)cc(C#N)c21 (stereo not drawn) [Example 355] | = | 5.29
CSCC1(CC(=O)O)OCCc2c1[nH]c1c(F)ccc(C#N)c21 (stereo not drawn) [Example 305] | < | 4.52
CCCC1(CC(=O)O)OCCc2c1[nH]c1c(C(C)C)ccc(C#N)c21 (stereo not drawn) [Example 297] | = | 5.74
CCCC1(C(=O)O)OCCc2c1[nH]c1c(Cl)ccc(Cl)c21 (stereo not drawn) [Example 329] | = | 6.22
CCSCC1(CC(=O)O)OCCc2c1[nH]c1c(Cl)ccc(Cl)c21 (stereo not drawn) [Example 250] | = | 5.43
O=C(O)CC1(C2CCCC2)OCCc2c1[nH]c1ccc(Cl)c(Cl)c21 (stereo not drawn) [Example 236] | = | 5.00
C=CCCC1(C(=O)O)OCCc2c1[nH]c1c(F)ccc(C#N)c21 (stereo not drawn) [Example 346] | = | 5.21
CCC(C)C1(CC(=O)O)OCCc2c1[nH]c1c(C)ccc(C#N)c21 (racemic) [Example 291] | = | 6.64
N#Cc1ccc(Cl)c2[nH]c3c(c12)CCOC3(CC(=O)O)C1CCC1 (stereo not drawn) [Example 327] | = | 6.10
N#Cc1ccc(F)c2[nH]c3c(c12)CCOC3(CC(=O)O)CC1CCCC1 (stereo not drawn) [Example 310] | < | 4.60

* * *

Collected pIC50 values appear next to each entry.
target: NS5B from the BK strain (genotype 1b) (Hepatitis C virus genotype 1b, UniProt P26663); construct: NS5B from the BK strain (genotype 1b) is expressed in E. coli as a protein in which the 21 C-terminal amino acids are replaced; made in house; host or cells: E. coli; assay: Hepatitis C polymerase inhibition, NS5B BK strain, 33P-GTP filter assay; format: biochemical; settings: Table 1B; NS5B BK strain; read-out: BK IC50
pIC50: −log10 of the molar value.

compound | pIC50
CCCOc1cc(C#N)c2c3c([nH]c2c1C)[C@@](CCC)(CC(=O)O)OCC3 | 7.05
CCCC1(CC(=O)O)OCCc2c1[nH]c1c(C)c(C(=O)NC)cc(C#N)c21 (stereo not drawn) | 5.89
CCCC1(CC(=O)O)OCCc2c1[nH]c1c(C)c(OCCF)cc(C#N)c21 (stereo not drawn) | 8.40
CCCC1(CC(=O)O)OCCc2c1[nH]c1c(CC)ccc(C#N)c21 (stereo not drawn) | 5.44
N#Cc1ccc(F)c2[nH]c3c(c12)CCOC3(CCC(F)(F)F)CC(=O)O (stereo not drawn) | 5.27
CCCC1(CC(=O)O)OCCc2c1[nH]c1c(C)c(OCc3cccc(F)c3)cc(C#N)c21 (stereo not drawn) | 7.10
O=C(O)CC1(C2CCC2)OCCc2c1[nH]c1c(Cl)ccc(Cl)c21 (stereo not drawn) | 6.46
O=C(O)CC1(C2CCC2)OCCc2c1[nH]c1c(Cl)ccc(C(F)(F)F)c21 (stereo not drawn) | 6.18
CCCC1(C(=O)O)OCCc2c1[nH]c1c(C)cc(F)c(C#N)c21 (stereo not drawn) | 6.31
CCCC1(C(=O)O)OCCc2c1[nH]c1c(C)ccc(Cl)c21 (stereo not drawn) | 5.80
CCCC1(C(=O)O)OCCc2c1[nH]c1c(Cl)ccc(C(F)(F)F)c21 (stereo not drawn) | 6.30
CCC(C)C1(CC(=O)O)OCCc2c1[nH]c1c(Cl)ccc(Cl)c21 (stereo not drawn) | 6.82
Cc1ccc(C(F)(F)F)c2c3c([nH]c12)C(CC(=O)O)(C1CC1)OCC3 (stereo not drawn) | 5.03
CCCC1(C(=O)O)OCCc2c1[nH]c1c(Cl)ccc(C#N)c21 (stereo not drawn) | 5.77
CC[C@H](C)[C@@]1(CC(=O)O)OCCc2c1[nH]c1c(C)ccc(C#N)c21 [Example 292] | 6.89
N#CCCCC1(CC(=O)O)OCCc2c1[nH]c1c(Cl)ccc(Cl)c21 (stereo not drawn) | 6.52
C=CCCC1(CC(=O)O)OCCc2c1[nH]c1c(Cl)ccc(Cl)c21 (stereo not drawn) | 5.77
CCC[C@]1(C(=O)O)OCCc2c1[nH]c1c(F)ccc(C#N)c21 | 6.15

Provenance of the data: patent US7217730B2
